These entries and their values trace back to patent US20170022281A1.

Provide the reported EC50 of each item.
SYSTEM NAME: T1, human PRLR ECD-Fc fusion protein (human, UniProt P16471 25-233)
T1 construct: not shown: Fc region (captured by goat anti-human Fc)
T1 sequence: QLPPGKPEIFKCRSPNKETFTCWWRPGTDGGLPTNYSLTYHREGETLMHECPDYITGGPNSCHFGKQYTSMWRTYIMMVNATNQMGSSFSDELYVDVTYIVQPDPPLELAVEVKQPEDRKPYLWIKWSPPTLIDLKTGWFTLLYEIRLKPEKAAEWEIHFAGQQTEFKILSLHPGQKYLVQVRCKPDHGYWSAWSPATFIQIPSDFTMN
EXPERIMENT DESCRIPTION: ELISA on ECD
Experimental: Plates were blocked for 1 hour with Superblock (Pierce) and washed (3×) with wash buffer (lx PBS (pH 7.4), 0.05% Tween 20). ECD proteins were bound to the appropriate antibody (1 hour) in binding buffer (wash buffer plus 10% Superblock), washed (3×, wash buffer), and then incubated with serial dilutions of antibodies (1 hour) in binding buffer. […] Curves were fit with GraphPad 5 (Prizm) and EC50's were determined with curve fitting function of GraphPad 5.
Give your result in nM as a bare value.

Record summary for Ab8 (antibody, V domains shown, murine monoclonal, isotype G2b; also called murine Ab8) VH: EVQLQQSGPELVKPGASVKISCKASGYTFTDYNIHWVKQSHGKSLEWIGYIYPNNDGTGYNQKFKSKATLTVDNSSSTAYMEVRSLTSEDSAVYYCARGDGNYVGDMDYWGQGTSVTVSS VL: DIQMTQSPASLSASVGETVTITCRASENIYSYLAWYQQKQGKPPQLLVYNAKTLAEGVPSRFSGGGSGTQFSLKINSLQPEDFGSYYCQHHYATPFTFGSGTKLEIK : reported EC50 = 0.098

Record summary for Ab17 (antibody, human IgG1, kappa, V domains shown, humanized from Ab6; G1; also called Ab1 HC.1 and Ab1 LC.2a) VH: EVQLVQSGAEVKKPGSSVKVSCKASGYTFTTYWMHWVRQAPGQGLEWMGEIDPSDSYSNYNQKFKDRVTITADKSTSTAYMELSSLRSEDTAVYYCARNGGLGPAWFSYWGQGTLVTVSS VL: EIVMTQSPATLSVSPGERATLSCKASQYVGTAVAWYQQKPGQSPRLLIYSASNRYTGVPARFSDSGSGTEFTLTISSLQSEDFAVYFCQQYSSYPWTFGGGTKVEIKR : reported EC50 = 0.0766

Record summary for chAb5 (antibody, human IgG1, kappa, V domains shown, chimeric, murine variable and human G1/kappa constant regions) VH: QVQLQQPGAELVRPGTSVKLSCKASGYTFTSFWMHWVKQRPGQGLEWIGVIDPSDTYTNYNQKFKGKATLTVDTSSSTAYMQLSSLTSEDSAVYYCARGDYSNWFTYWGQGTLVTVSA VL: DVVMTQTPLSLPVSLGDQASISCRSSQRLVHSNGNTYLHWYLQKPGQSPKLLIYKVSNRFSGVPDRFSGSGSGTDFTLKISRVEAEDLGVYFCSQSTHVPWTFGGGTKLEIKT : reported EC50 = 0.098
